System: Mycobacterium tuberculosis
Assay: Antimycobacterial activity against Mycobacterium tuberculosis isolate 352 expressing rpoB Asp516Leu and Phe514Phe double mutant gene by resazurin microtiter assay
Assay type: functional
Recorded MIC by entry
Answer in µg/mL, number only, no unit symbol.

Before answering, review these 2 worked examples.
INSERT INTO assay_data (chemical_string, observed_result) VALUES
  ('CO[C@H]1/C=C/O[C@@]2(C)Oc3c(C)c(O)c4c(c3[C@H]2O)C2=NC3(CCN(CC(C)C)CC3)NC2=C(NC(=O)/C(C)=C\C=C\[C@H](C)[C@H](O)[C@@H](C)[C@@H](O)[C@@H](C)[C@H](O)[C@@H]1C)C4=O', 0.5),
  ('C=CCCCCCCCCC(=O)N1C2=C3NC(=O)/C(C)=C\C=C\[C@H](C)[C@H](O)[C@@H](C)[C@@H](O)[C@@H](C)[C@H](OC(C)=O)[C@H](C)[C@@H](OC)/C=C/O[C@@]4(C)Oc5c(C)c(O)c(c(c5C4=O)C2=NC12CCN(CC(C)C)CC2)C3=O', 0.25);

Switching to the query record.
Query: Check the records and state MIC for CO[C@H]1/C=C/O[C@@]2(C)Oc3c(C)c(O)c4c(c3C2=O)C2=NC3(CCN(CC(C)C)CC3)N(C(C)=O)C2=C(NC(=O)/C(C)=C\C=C\[C@H](C)[C@H](O)[C@@H](C)[C@@H](O)[C@@H](C)[C@H](OC(C)=O)[C@@H]1C)C4=O
Result: 1

* * *

Recorded MIC by entry
Tested on: Mycobacterium tuberculosis
Assay: Antimycobacterial activity against Mycobacterium tuberculosis isolate 311 expressing rpoB mutant gene by resazurin microtiter assay
Assay type: functional

INSERT INTO assay_data (chemical_string, readout_name, observed_result) VALUES
  ('CO[C@H]1/C=C/O[C@@]2(C)Oc3c(C)c(O)c4c(O)c(c(/C=N/N5CCN(C)CC5)c(O)c4c3C2=O)NC(=O)/C(C)=C\C=C\[C@H](C)[C@H](O)[C@@H](C)[C@@H](O)[C@@H](C)[C@H](OC(C)=O)[C@@H]1C', 'MIC', '>2 mg/L');

Switching to the query record.
Query: Check the records and state MIC for C=CCCCCCCCCC(=O)N1C2=C3NC(=O)/C(C)=C\C=C\[C@H](C)[C@H](O)[C@@H](C)[C@@H](O)[C@@H](C)[C@H](OC(C)=O)[C@H](C)[C@@H](OC)/C=C/O[C@@]4(C)Oc5c(C)c(O)c(c(c5C4=O)C2=NC12CCN(CC(C)C)CC2)C3=O
Result: >2 mg/L

* * *

Test system: Mycobacterium tuberculosis
Experiment: Antimycobacterial activity against Mycobacterium tuberculosis isolate 311 expressing rpoB mutant gene by resazurin microtiter assay
Assay type: functional
Recorded MIC by entry

INSERT INTO measurements (chemical_string, experimental_target, observed_result) VALUES
  ('CO[C@H]1/C=C/O[C@@]2(C)Oc3c(C)c(O)c4c(c3C2=O)C2=NC3(CCN(CC(C)C)CC3)N(C(C)=O)C2=C(NC(=O)/C(C)=C\C=C\[C@H](C)[C@H](O)[C@@H](C)[C@@H](O)[C@@H](C)[C@H](OC(C)=O)[C@@H]1C)C4=O', 'Mycobacterium tuberculosis', '>2 mg/L'),
  ('CCCCCCCCCCCCCCCC(=O)N1C2=C3NC(=O)/C(C)=C\C=C\[C@H](C)[C@H](O)[C@@H](C)[C@@H](O)[C@@H](C)[C@H](OC(C)=O)[C@H](C)[C@@H](OC)/C=C/O[C@@]4(C)Oc5c(C)c(O)c(c(c5C4=O)C2=NC12CCN(CC(C)C)CC2)C3=O', 'Mycobacterium tuberculosis', '>2 mg/L'),
  ('CO[C@H]1/C=C/O[C@@]2(C)Oc3c(C)c(O)c4c(c3C2=O)C2=NC3(CCN(CC(C)C)CC3)NC2=C(NC(=O)/C(C)=C\C=C\[C@H](C)[C@H](O)[C@@H](C)[C@@H](O)[C@@H](C)[C@H](OC(C)=O)[C@@H]1C)C4=O', 'Mycobacterium tuberculosis', '2 mg/L'),
  ('CO[C@H]1/C=C/O[C@@]2(C)Oc3c(C)c(O)c4c(c3C2=O)C2=NC3(CCN(CC(C)C)CC3)NC2=C(NC(=O)/C(C)=C\C=C\[C@H](C)[C@H](O)[C@@H](C)[C@@H](O)[C@@H](C)[C@H](O)[C@@H]1C)C4=O', 'Mycobacterium tuberculosis', '>2 mg/L'),
  ('CO[C@H]1/C=C/O[C@@]2(C)Oc3c(C)c(O)c4c(c3[C@H]2O)C2=NC3(CCN(CC(C)C)CC3)NC2=C(NC(=O)/C(C)=C\C=C\[C@H](C)[C@H](O)[C@@H](C)[C@@H](O)[C@@H](C)[C@H](O)[C@@H]1C)C4=O', 'Mycobacterium tuberculosis', '2 mg/L');

Switching to the query record.
Query: Check the records and state MIC for CO[C@H]1/C=C/O[C@@]2(C)Oc3c(C)c(O)c4c(c3[C@H]2O)C2=NC3(CCN(CC(C)C)CC3)N(C(C)=O)C2=C(NC(=O)/C(C)=C\C=C\[C@H](C)[C@H](O)[C@@H](C)[C@@H](O)[C@@H](C)[C@H](OC(C)=O)[C@@H]1C)C4=O
Result: >2 mg/L
